Cited source for all entries: ChEMBL document CHEMBL1201862

Tested on: HCT-15
reported endpoint: GI50 (µM)

INSERT INTO assay_data (compound, target_or_test_system, result_modifier, recorded_result) VALUES
  ('COC(=O)/C(=N\NC(=O)c1ccccc1O)C(C#N)c1ccccc1 (stereo not drawn)', 'HCT-15', '=', 17.4),
  ('O=c1c(-c2ccc(O)cc2)coc2cc(OC3OC(CO)C(O)C(O)C3O)cc(O)c12 (stereo not drawn)', 'HCT-15', '>', 100),
  ('CCOC(=O)[C@@H]1[C@@H](c2ccccc2)N(C)O[C@@]1(c1ccccc1)C(F)(F)F', 'HCT-15', '=', 40.1),
  ('CC(=O)OCC(OC(C)=O)C(OC(C)=O)C(/C=N\Nc1nc2ccccc2c(=O)[nH]1)OC(C)=O (stereo not drawn)', 'HCT-15', '>', 100),
  ('O=[N+]([O-])c1cc(C(F)(F)F)cc2c1SC1=Nc3ccccc3CN12', 'HCT-15', '>', 100),
  ('CCn1cnnc1-c1nsc2ccccc12', 'HCT-15', '>', 100),
  ('CCOC(=O)Nc1cc2c(c(N)n1)N=C(c1ccccc1)[C@H](C)N2 [MIVOBULIN ISETHIONATE]', 'HCT-15', '=', 0.0324),
  ('CC(=O)Oc1c2oc3cc(O)c(O)cc3c2c(OC(C)=O)c2oc3cc(O)c(O)cc3c12 [POLYOZELLIN]', 'HCT-15', '=', 25.2),
  ('C/C=C/[C@H]1O[C@@](OC)([C@@H](C)[C@H](O)[C@H](C)[C@H]2OC(=O)/C(OC)=C/C(C)=C/[C@@H](C)[C@@H](O)[C@@H](C)[C@@H](O)[C@H](C)C/C(C)=C/C=C/[C@@H]2OC)CC(OC2CC(O)C(OC(N)=O)C(C)O2)[C@@H]1C (stereo partly drawn)', 'HCT-15', '<', 0.01),
  ('O=C1Oc2ccccc2C1C/C(=N\Nc1ccccc1)c1ccccc1O (stereo not drawn)', 'HCT-15', '=', 34.3),
  ('Cc1ccc(S(=O)OCc2c(C)c(C)c(COS(=O)c3ccc(C)cc3)c(C)c2C)cc1 (stereo not drawn)', 'HCT-15', '>', 100),
  ('Cc1ccc(N2CCC3(CC2)OCCO3)cc1', 'HCT-15', '>', 100),
  ('Cc1cc2c(cc1C)[n+]([O-])c(C(=O)N1CCN(c3ccc([N+](=O)[O-])cc3)CC1)c(C)[n+]2[O-]', 'HCT-15', '=', 77.6),
  ('Cc1n[nH]c(=O)n1N=C(c1ccccc1)c1ccccc1', 'HCT-15', '>', 100),
  ('COc1cc(OCc2ccccc2)c2c(CCC(=O)O)cc(=O)oc2c1.COc1cc(OCc2ccccc2)cc2oc(=O)cc(CCC(=O)O)c12', 'HCT-15', '=', 27),
  ('COc1cc(OC)c2c(=O)c3c([N+](=O)[O-])cccc3n(C)c2c1', 'HCT-15', '>', 100),
  ('CCN(CC)CC[n+]1ccc2c(C)c3[nH]c4ccccc4c3c(C)c2c1', 'HCT-15', '=', 22),
  ('COc1cc(C2c3cc4c(cc3[C@@H](Nc3ccc(F)cc3)C3COC[C@H]23)OCO4)cc(OC)c1O (stereo partly drawn)', 'HCT-15', '=', 2.48);
